Entry source: the nanobody polyreactivity screen of Harvey et al. (2022)

- procedure details: yeast display, Sf9 membrane polyspecificity reagent, FACS + sequencing; frameworks hold sequencing errors
endpoint name: polyreactivity (PSR sort gate)

- sequence text: "QVQLVESGGGLVQAGGSLRLSCAASGSIFGTNAMGWYRQAPGKERELVAAIDGGSTTYYADSVKGRFTISRDNAKNTVYLQMNSLKPEDTAVYYCAADGSRYLNYEGYAGYEYWGQGTQVTVSS"
  result: "low polyreactivity"
- sequence text: "QVQHVESGGGLVQAGGSLRLSCAASVSTFEYYAIGRYRQAPGKERELVASISSGGSTYYADSVKGRFTISRDNAKNTVYLQMNSLKPEDTAVYYCAADSYYGYEYWGQGTQVTVSS"
  result: "low polyreactivity"
- sequence text: "QVQLVESGGGLVQAGGSLRLSCAASGRTFKLYAMGWYRQAPGKERELVAALSIRGTSTYYADSVKGRFTISRDNAKNTVYLQMNSLKPEDTAVYYCAAEDRYGYYLVRWQGYYYWGQGTQVTVSS"
  result: "low polyreactivity"

###

- procedure details: yeast display, Sf9 membrane polyspecificity reagent, FACS + sequencing; frameworks hold sequencing errors
endpoint name: polyreactivity (PSR sort gate)

- sequence text: "QDQLVESGGGLVQAGDSLRLSCAASGIILLSYAMGWYRQAPGKERELVAAITSGGGTNYADSVKGRFTISRDNAKNTVYLQMNSLKPEDTAVYYCAVGAYAGLYYYWGQGTQVTVSS"
  result: "low polyreactivity"
- sequence text: "QVQLVESGGGLVQAGGSLRLSCAASGSIFGLYAMGWYRQAPGKERELVAAINWNGGDTYYADSVKGRFTISRDYAKNTVYLQMNSLKPEDTAVYYCAAEQYRYGIRRRHYDYWGQGTEVTVSS"
  result: "low polyreactivity"
- sequence text: "QVQLVESGGGLVQAGGSLRLSCAASASTFWKYAMGWYRQAPGKEREFVAAITRSGGNTYYADSVQGRFTISRDNAKNTVFLQMNSLKPEDTAVYYCDKVTTVPYTNDYWGQGTQVTVSS"
  result: "high polyreactivity"
- sequence text: "QVQLVESGVGIVQAGGSLRLSCAASGRIISGYAMGWYRHAPGKERELVATISSGGGTNYADSVKGRFTISRDNAKNTVYLQMNSLKPEDTAVYYCNKAWGYWSIRGVTHRYGYWGQGTQVTVSS"
  result: "high polyreactivity"
- sequence text: "QVQLVESGGGLVQAGGSLRLSCAASGFIFSYYAMGWYRPAPGKEREFVAAISRRGGSTYYADSVKGRFTISRDNAKNTVYLQMNSLKPEDTAVFYCARRRTSTAVREHYYRDWYGYDFWGQGTQVTVSS"
  result: "high polyreactivity"
- sequence text: "QVQLVESGGGLVQAGGSLRLSCAASGYTFSRNAMGWYRPAPGKERELVAAITGSGGSTYYADSVKGRFTISRDNAKNTVYLQMNSLKPEDTAVYYCASKYYGRSFYYGYDYWGQGTQVTVSS"
  result: "low polyreactivity"
- sequence text: "QVQLVESGGGLVQAGGSLRLSCAATRSTSSKYAMGWYRQAPGKERELVAAITRSGGRTYYAVSVMGRFTISRDYAKNTVYLQMNSLKPEDTAVYYCAAAGVYWEFDYWGQGTQVTVSS"
  result: "high polyreactivity"
- sequence text: "QVQLVESGGGLVQAGGSLRLSCAASGRTFSVNAMGWYRQAPGKERELVAAISSGGGTNYADSVKGRFTISRDNAKNNVYLQMNSLKPEDTAVYYCAARTFGYPSHRKEMEYWGQGTQVTVSS"
  result: "low polyreactivity"

Task item: Need polyreactivity (PSR sort gate) of "QVQLVESGGGLVQAGGSLRLSCAASGRIFYSYAMGWYRQAPGKERELVAAIRSTGSTNYADSVKGRFTISRDNAKNTVYLQMNSLKPEDTAVYYCAARTSYRSSLYGYWGQGTQVTVSS" , thanks.
Reply: high polyreactivity

Task item: Need polyreactivity (PSR sort gate) of "QVQLVETGGGLVQAGGSLRLSCAASGFIFAYNAMGWYRQAPGKERELVAAISWSGGSTYYADSVKGRFTISRDNAKITVYLQMNCLKPEDTAVYYCNAVSYFGARYDYWGQGTQVTVSS" , thanks.
Reply: high polyreactivity

Task item: Need polyreactivity (PSR sort gate) of "QVQLVESGGGLDQAGGSLRLSCAASGFTFRYYAMGWYRQAPRKERELVAAIRRGGTTNYADSVKGRFTISRDNAKNTVYLQMNSLKPEDTAVYYCANYRYGYDYWGQGTQVTVSS" , thanks.
Reply: high polyreactivity

Task item: Need polyreactivity (PSR sort gate) of "QVQLVESGGGLVQAGGSLRLSCAASGRIFPWYAMGWYRQAPGKEREVVAAIRWRGGGTYYADSVKGRFTISRDNAKNTVYLQMNSLKPEDTAVYYCAARRPANGMGYWGQGTQVTVSS" , thanks.
Reply: high polyreactivity

Task item: Need polyreactivity (PSR sort gate) of "QVQLVESAGGLVQAGGSLRLSCAASGTFYYYAMGWYRQAPGKERELVAAISNGDSTTYADSVKGRFTISRDNAKNTVYLQMNSLNPEDTAVYYCAAYRYTPRTSRGYYYWGQGTQVTVSS" , thanks.
Reply: low polyreactivity

Task item: Need polyreactivity (PSR sort gate) of "QVQLVESGGGLVQAGGSLRLRCAASGSTFAWYAMGWYRQAPGKERELVAAISRTGRTYYADSVKGRFTISRDNAKNTVYLQMNSLKPEDTAVYYCAARIERFYRDQRYDYWGQGTQVTVSS" , thanks.
Reply: high polyreactivity

Task item: Need polyreactivity (PSR sort gate) of "QVQLVESVGGLVQAGGSLRLSCAASGSIFTYNAMGWYRQAPGKERELVAAITTSGDSTYYADSVKGRFTISRDNAKNTVYLQMNSLKPEDTAVYYCNADWSWYNYYDFDYWGQGTQVTVSS" , thanks.
Reply: low polyreactivity
